# Tested on: multiple species and strains
# assayOverview: microbe, parasite or virus in culture
# measurementContext: Klebsiella pneumoniae, ATCC10031, read-out: MIC S4, K. pneumoniae ATCC 10031
Please respond with Yes when measured MIC is strictly beneath 0.03 µg/mL, and with No in all other cases.

Solved cases (3 shown):
- CNc1cc(F)c(F)c2c1[nH]c1ncc(-c3ccc4ccc(C(=O)O)c(=O)n4c3)c(N3CC[C@@]4(C[C@@H]4N)C3)c12 (single isomer, unassigned) [Example 4.01A]: No
- CNc1cc(F)c(F)c2c1[nH]c1ncc(-c3ccc4ccc(C(=O)O)c(=O)n4c3)c(N3C[C@H]4CCN(C)[C@H]4C3)c12 [Example 3.03A]: Yes
- CNc1cc(F)c(F)c2c1[nH]c1ncc(-c3ccc4ccc(C(=O)O)c(=O)n4c3)c(N3CCC(C4(N)CC4)C3)c12 (centres unmarked): No

## Task State whether 0.03 µg/mL exceeds MIC recorded for CNc1cc(F)c(Cl)c2c1[nH]c1ncc(-c3ccc4ccc(C(=O)O)c(=O)n4c3)c(N3CC[C@@]4(C[C@@H]4N)C3)c12 (single isomer, unassigned) [Example 5.01A] .
## Result No

## Task State whether 0.03 µg/mL exceeds MIC recorded for CNc1cc(F)c(C#N)c2c1[nH]c1ncc(-c3ccc4ccc(C(=O)O)c(=O)n4c3)c(N3C[C@H]4CCN(C)[C@H]4C3)c12 (single isomer, unassigned) .
## Result No

## Task State whether 0.03 µg/mL exceeds MIC recorded for "CNc1cc(F)c(F)c2c1[nH]c1ncc(-c3cc(C)c4ccc(C(=O)O)c(=O)n4c3)c(N(C)C)c12" .
## Result No

## Task State whether 0.03 µg/mL exceeds MIC recorded for CNc1cc(F)c(C#N)c2c1[nH]c1ncc(-c3ccc4ccc(C(=O)O)c(=O)n4c3)c(N3CC[C@H]4CCN(C)C4C3)c12 (stereo in doubt) .
## Result Yes

## Task State whether 0.03 µg/mL exceeds MIC recorded for CNc1cc(F)cc2c1[nH]c1nc(Oc3cnc(C)nc3)nc(N3C[C@H]4C[C@@H]3C[C@H]4N)c12 [GP-6, reference compound] .
## Result Yes

====

# Tested on: multiple species and strains
# assayOverview: microbe, parasite or virus in culture
# Parameters: unit not given beside the values
# measurementContext: E. coli ATCC 35218
Please respond with 1 when measured MIC S9 is strictly beneath 0.4, and with 0 in all other cases.

Solved cases (5 shown):
• CNc1cc(F)c(F)c2c1[nH]c1ncc(-c3ccc4ccc(C(=O)O)c(=O)n4c3)c(N3CC[C@@]4(C[C@@H]4N)C3)c12 (single isomer, unassigned) [Example 4.01A] = 1
• CNc1cc(F)c(Cl)c2c1[nH]c1ncc(-c3ccc4ccc(C(=O)O)c(=O)n4c3)c(N3C[C@H]4CC[C@@H](N(C)C)[C@H]4C3)c12 = 0
• CNc1cc(F)c(F)c2c1[nH]c1ncc(-c3ccc4ccc(C(=O)O)c(=O)n4c3)c(N3C[C@H]4CCN(C)[C@H]4C3)c12 [Example 3.03A] = 0
• CNc1cc(F)c(F)c2c1[nH]c1ncc(-c3ccc4ccc(C(=O)O)c(=O)n4c3)c(N3CCC(C4(N)CC4)C3)c12 (stereo not drawn) = 0
• CNc1cc(F)c(C#N)c2c1[nH]c1ncc(-c3ccc4ccc(C(=O)O)c(=O)n4c3)c(N3CC[C@H]4CN(C)C[C@H]43)c12 = 1

Moving on to another compound below.
## Task State whether 0.4 exceeds MIC S9 recorded for CNc1cc(F)c(F)c2c1[nH]c1ncc(-c3ccc4ccc(C(=O)O)c(=O)n4c3)c(N3CC[C@@H]4CCN(C)[C@@H]4C3)c12 [Example 3.04B] .
## Result 0
